# EXPERIMENTAL TARGET: PE-labeled human PD-L1-Ig binding to Jurkat cell line over-expressing human PD-1 (Jurkat-PD-1) (Homo sapiens, UniProt Q15116)
# Construct: expressed in transfected cells; host or cells: Jurkat
# Sequence (Q15116 25-288): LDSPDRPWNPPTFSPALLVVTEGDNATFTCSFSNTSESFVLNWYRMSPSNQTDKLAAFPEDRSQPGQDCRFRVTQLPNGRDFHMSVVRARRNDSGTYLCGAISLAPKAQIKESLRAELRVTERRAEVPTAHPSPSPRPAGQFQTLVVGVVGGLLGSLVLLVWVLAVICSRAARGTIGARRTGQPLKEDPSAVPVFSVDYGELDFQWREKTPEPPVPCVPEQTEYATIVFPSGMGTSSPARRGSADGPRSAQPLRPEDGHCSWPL
# ASSAY NOTES: Jurkat-PD-1 Cell Binding High-Content Screening Assay (CBA): Method 1
# CONDITIONS USED: Jurkat-hPD-1 cells, PE-labeled PD-L1-Ig 20 nM final; read-out: Jurkat HPDL1 PD1 IC50 (uM) (Method 1)
Bridge positions count the residues as written; N and C are the ends. Square brackets hold non-standard residues; d marks the D form. Peptide text beside a SMILES is read from it. Phe(3-COOH) = N[C@@H](Cc1cccc(C(=O)O)c1)C(=O)O; Bip = N[C@@H](Cc1ccc(-c2ccccc2)cc1)C(=O)O; Cha = N[C@@H](CC1CCCCC1)C(=O)O; NMeA = CN[C@@H](C)C(=O)O; Dab = NCC[C@H](N)C(=O)O; Dap = NC[C@H](N)C(=O)O
VALUE TYPE: IC50 (µM)
The response must be a number in µM with no trailing unit.

# get_value(readout='IC50', item= CC(C)C[C@@H]1NC(=O)[C@H](Cc2c[nH]c3ccccc23)NC(=O)[C@H](CC(=O)O)NC(=O)[C@H](Cc2cccc(C(=O)O)c2)NC(=O)[C@H](CN)NC(=O)CSC[C@@H](C(=O)NCC(N)=O)NC(=O)[C@H](CO)NC(=O)[C@H](C(C)C)NC(=O)[C@H](CC2CCCCC2)NC(=O)[C@H](CCN)NC(=O)[C@@H](CC(C)C)NC(=O)[C@H](C)N(C)C(=O)[C@H](C(C)C)NC(=O)[C@H](Cc2ccc(-c3ccccc3)cc2)NC1=O [Compound 1877] ({CH2CO}-[Dap][Phe(3-COOH)]DWL[Bip]V[NMeA][dL][Dab][Cha]VSCG-NH2; thioether N-14) )
0.01

Next molecule: CC(C)C[C@@H]1NC(=O)[C@H](Cc2c[nH]c3ccccc23)NC(=O)[C@H](CC(=O)O)NC(=O)[C@H](Cc2ccc(O)cc2)NC(=O)[C@H](Cc2ccccc2)NC(=O)CSC[C@@H](C(=O)N[C@@H](C)C(N)=O)NC(=O)[C@H](CO)NC(=O)[C@H](C(C)C)NC(=O)[C@H](CC(C)C)NC(=O)[C@H](CCCNC(=N)N)NC(=O)[C@@H](CC(C)C)NC(=O)[C@H](C)N(C)C(=O)[C@H](CCCNC(=N)N)NC(=O)[C@H](Cc2ccc(-c3ccccc3)cc2)NC1=O [Compound 1780] ({CH2CO}-FYDWL[Bip]R[NMeA][dL]RLVSCA-NH2; thioether N-14)
0.08

###

Record form. Attribute: IC50. Fill in for each entry.
# EXPERIMENTAL TARGET: PE-labeled human PD-L1-Ig binding to Jurkat cell line over-expressing human PD-1 (Jurkat-PD-1) (Homo sapiens, UniProt Q15116)
# Construct: expressed in transfected cells; host or cells: Jurkat
# ASSAY NOTES: Jurkat-PD-1 Cell Binding High-Content Screening Assay (CBA): Method 1
# CONDITIONS USED: Jurkat-hPD-1 cells, PE-labeled PD-L1-Ig 20 nM final; read-out: Jurkat HPDL1 PD1 IC50 (uM) (Method 1)
Bridge positions count the residues as written; N and C are the ends. Square brackets hold non-standard residues; d marks the D form. Peptide text beside a SMILES is read from it. Phe(4-COOH) = N[C@@H](Cc1ccc(C(=O)O)cc1)C(=O)O; Bip = N[C@@H](Cc1ccc(-c2ccccc2)cc1)C(=O)O; Phe(3-Me) = Cc1cccc(C[C@H](N)C(=O)O)c1; 3Pal = N[C@@H](Cc1cccnc1)C(=O)O; 2Thi = N[C@@H](Cc1cccs1)C(=O)O; Cha = N[C@@H](CC1CCCCC1)C(=O)O; NMeA = CN[C@@H](C)C(=O)O; Nle = CCCC[C@H](N)C(=O)O; Orn = NCCC[C@H](N)C(=O)O; Dab = NCC[C@H](N)C(=O)O; Dap = NC[C@H](N)C(=O)O
The response must be a number in µM with no trailing unit.

# get_value(readout='IC50', item= CC(C)C[C@@H]1NC(=O)[C@H](CCN)NC(=O)[C@@H](CC(C)C)NC(=O)[C@H](C)N(C)C(=O)[C@H](CCCNC(=N)N)NC(=O)[C@H](Cc2ccc(-c3ccccc3)cc2)NC(=O)[C@H](C(C)C)NC(=O)[C@H](Cc2cccs2)NC(=O)[C@H](CC(=O)O)NC(=O)[C@H](Cc2ccc(O)cc2)NC(=O)[C@H](CC(N)=O)NC(=O)CSC[C@@H](C(=O)N[C@@H](C)C(N)=O)NC(=O)[C@H]([C@@H](C)O)NC(=O)[C@H](C(C)C)NC1=O [Compound 1219] ({CH2CO}-NYD[2Thi]V[Bip]R[NMeA][dL][Dab]LVTCA-NH2; thioether N-14) )
0.26

Next compound: Cc1cccc(C[C@@H]2NC(=O)[C@H](CC(=O)O)NC(=O)[C@H](Cc3cccnc3)NC(=O)[C@H](CN)NC(=O)CSC[C@@H](C(=O)N[C@@H](C)C(N)=O)NC(=O)[C@H](CO)NC(=O)[C@H](C(C)C)NC(=O)[C@H](CC(C)C)NC(=O)[C@H](CC(N)=O)NC(=O)[C@@H](C)NC(=O)[C@H](C)N(C)C(=O)[C@H](C(C)C)NC(=O)[C@H](Cc3ccc(-c4ccccc4)cc3)NC(=O)[C@H](CC(C)C)NC2=O)c1 [Compound 1584] ({CH2CO}-[Dap][3Pal]D[Phe(3-Me)]L[Bip]V[NMeA][dA]NLVSCA-NH2; thioether N-14)
0.02

Next compound: CC(C)C[C@@H]1NC(=O)[C@H](Cc2c[nH]c3ccccc23)NC(=O)[C@H](CC(=O)O)NC(=O)[C@H](Cc2ccc(O)cc2)NC(=O)[C@H](Cc2ccccc2)NC(=O)CSC[C@@H](C(=O)N[C@@H](C)C(N)=O)NC(=O)[C@H](CO)NC(=O)[C@H](C(C)C)NC(=O)[C@H](CC(C)C)NC(=O)[C@H](CCN)NC(=O)[C@@H](C)NC(=O)[C@H](C)N(C)C(=O)[C@H](CCCNC(=N)N)NC(=O)[C@H](Cc2ccc(-c3ccccc3)cc2)NC1=O [Compound 1751] ({CH2CO}-FYDWL[Bip]R[NMeA][dA][Dab]LVSCA-NH2; thioether N-14)
0.03

Next compound: CC(C)C[C@H]1NC(=O)[C@H](C)N(C)C(=O)[C@H](C(C)C)NC(=O)[C@H](Cc2ccc(-c3ccccc3)cc2)NC(=O)[C@H](C(C)C)NC(=O)[C@H](Cc2c[nH]c3ccccc23)NC(=O)[C@H](CC(=O)O)NC(=O)[C@H](Cc2ccc(O)cc2)NC(=O)[C@H](CN)NC(=O)CSC[C@@H](C(=O)N[C@@H](C)C(N)=O)NC(=O)[C@H]([C@@H](C)O)NC(=O)[C@H](C(C)C)NC(=O)[C@H](CC2CCCCC2)NC(=O)[C@H](CCCNC(=N)N)NC1=O [Compound 1485] ({CH2CO}-[Dap]YDWV[Bip]V[NMeA][dL]R[Cha]VTCA-NH2; thioether N-14)
0.39

Next compound: CC(C)C[C@@H]1NC(=O)[C@H](CCN)NC(=O)[C@@H](CC(C)C)NC(=O)[C@H]2CCCN2C(=O)[C@H](C(C)C)NC(=O)[C@H](Cc2ccc(-c3ccccc3)cc2)NC(=O)[C@H](C(C)C)NC(=O)[C@H](Cc2c[nH]c3ccccc23)NC(=O)[C@H](CC(=O)O)NC(=O)[C@H](Cc2ccc(O)cc2)NC(=O)[C@H](CC(N)=O)NC(=O)CSC[C@@H](C(=O)N[C@@H](C)C(N)=O)NC(=O)[C@H]([C@@H](C)O)NC(=O)[C@H](C(C)C)NC1=O [Compound 1279] ({CH2CO}-NYDWV[Bip]V[dP][dL][Dab]LVTCA-NH2; thioether N-14)
0.02

Next compound: CCCC[C@@H]1NC(=O)[C@H](CCN)NC(=O)[C@@H](CC(C)C)NC(=O)[C@H](C)N(C)C(=O)[C@H](CCCN)NC(=O)[C@H](Cc2ccc(-c3ccccc3)cc2)NC(=O)[C@H](C(C)C)NC(=O)[C@H](Cc2c[nH]c3ccccc23)NC(=O)[C@H](CC(=O)O)NC(=O)[C@H](Cc2ccc(O)cc2)NC(=O)[C@H](CC(N)=O)NC(=O)CSC[C@@H](C(=O)N[C@@H](C)C(N)=O)NC(=O)[C@H]([C@@H](C)O)NC(=O)[C@H](C(C)C)NC1=O [Compound 1267] ({CH2CO}-NYDWV[Bip][Orn][NMeA][dL][Dab][Nle]VTCA-NH2; thioether N-14)
0.26

Next compound: CC(C)C[C@@H]1NC(=O)[C@H](CCN)NC(=O)[C@@H](CC(C)C)NC(=O)[C@H](C)N(C)C(=O)[C@H](CCCNC(=N)N)NC(=O)[C@H](Cc2ccc(-c3ccccc3)cc2)NC(=O)[C@H](C(C)C)NC(=O)[C@H](Cc2c[nH]c3ccccc23)NC(=O)[C@H](CC(=O)O)NC(=O)[C@H](Cc2ccc(O)cc2)NC(=O)[C@H](Cc2ccccc2)NC(=O)CSC[C@@H](C(=O)N[C@@H](C)C(N)=O)NC(=O)[C@H]([C@@H](C)O)NC(=O)[C@H](C(C)C)NC1=O [Compound 1052] ({CH2CO}-FYDWV[Bip]R[NMeA][dL][Dab]LVTCA-NH2; thioether N-14)
0.04

Next compound: CC(C)C[C@@H]1NC(=O)[C@H](C)NC(=O)[C@@H](C)NC(=O)[C@H](C)N(C)C(=O)[C@H](CCC(=O)O)NC(=O)[C@H](Cc2ccc(-c3ccccc3)cc2)NC(=O)[C@H](CC(C)C)NC(=O)[C@H](Cc2c[nH]c3ccccc23)NC(=O)[C@H](CC(=O)O)NC(=O)[C@H](Cc2ccc(C(=O)O)cc2)NC(=O)[C@H](Cc2ccccc2)NC(=O)CSC[C@@H](C(=O)N[C@@H](C)C(N)=O)NC(=O)[C@H](CO)NC(=O)[C@H](C(C)C)NC1=O [Compound 1773] ({CH2CO}-F[Phe(4-COOH)]DWL[Bip]E[NMeA][dA]ALVSCA-NH2; thioether N-14)
0.05
